Experimental Target: Fuc(a1-2)Gal(b1-3)[Fuc(a1-4)]GlcNAc(b1-2)Man(a1-3)[Fuc(a1-2)Gal(b1-3)[Fuc(a1-4)]GlcNAc(b1-2)Man(a1-6)]Man(b1-4)GlcNAc(b1-4)[Fuc(a1-6)]GlcNAc(b1-4)[Fuc(a1-6)]GlcNAc
Test Protocol: glycan array binding signal (z-score within array); higher = stronger binding
Condition Label: glycan notation: IUPAC condensed, linker removed
Only a selection was taken, and the strongest signals are over-represented in it overall.
Quantity Kind: glycan array binding signal (z-score)
Keep it simple and answer with nothing but the number.

Epa3to1 (Candida glabrata) (protein) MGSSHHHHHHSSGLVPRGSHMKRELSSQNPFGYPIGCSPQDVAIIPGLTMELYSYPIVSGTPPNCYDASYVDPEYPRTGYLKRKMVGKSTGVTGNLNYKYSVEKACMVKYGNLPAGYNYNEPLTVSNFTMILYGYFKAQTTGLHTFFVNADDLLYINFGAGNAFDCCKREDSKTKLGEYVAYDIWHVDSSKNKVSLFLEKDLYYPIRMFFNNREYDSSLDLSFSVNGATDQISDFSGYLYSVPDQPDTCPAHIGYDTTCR; -0.07

Moving on to another binder below.
Returns the measured glycan array binding signal (z-score) for the input binder. Input: SfaEH (Escherichia coli), Q1RDG5 (protein) LLCRNNQTGQVFNSGDTSFRVNVSPVVQYDKSISVLDLSQLVSCQNEDSTGQNYDYLKILKGSGFSPALDTKTYGRLDFTSRPTGYARQLPLQFDLQVTEAFYQYGVWKPFPAKLYLYPAPGVFGKVINNGDLLATLYVNKFSTKGQEAGERNFTWRFYATNDVYIQTGTCRVSSNNVKVDLPSYPGGPVTVPLTVRCDQTQSVSYTLSGPVTGSGNTVFANTAASGSGGVGIQLSDNVGPVPAGQPRSLGQVGSSPVSLGLKASYALTGQASPTPGAVQSVINVTFSYN
1.21
